target_system: Nitric oxide synthase 1 (Rattus norvegicus, UniProt P29476); note: in other assays of this panel Not Active means under 50% inhibition at 10 µM
Sequence (P29476 whole entry): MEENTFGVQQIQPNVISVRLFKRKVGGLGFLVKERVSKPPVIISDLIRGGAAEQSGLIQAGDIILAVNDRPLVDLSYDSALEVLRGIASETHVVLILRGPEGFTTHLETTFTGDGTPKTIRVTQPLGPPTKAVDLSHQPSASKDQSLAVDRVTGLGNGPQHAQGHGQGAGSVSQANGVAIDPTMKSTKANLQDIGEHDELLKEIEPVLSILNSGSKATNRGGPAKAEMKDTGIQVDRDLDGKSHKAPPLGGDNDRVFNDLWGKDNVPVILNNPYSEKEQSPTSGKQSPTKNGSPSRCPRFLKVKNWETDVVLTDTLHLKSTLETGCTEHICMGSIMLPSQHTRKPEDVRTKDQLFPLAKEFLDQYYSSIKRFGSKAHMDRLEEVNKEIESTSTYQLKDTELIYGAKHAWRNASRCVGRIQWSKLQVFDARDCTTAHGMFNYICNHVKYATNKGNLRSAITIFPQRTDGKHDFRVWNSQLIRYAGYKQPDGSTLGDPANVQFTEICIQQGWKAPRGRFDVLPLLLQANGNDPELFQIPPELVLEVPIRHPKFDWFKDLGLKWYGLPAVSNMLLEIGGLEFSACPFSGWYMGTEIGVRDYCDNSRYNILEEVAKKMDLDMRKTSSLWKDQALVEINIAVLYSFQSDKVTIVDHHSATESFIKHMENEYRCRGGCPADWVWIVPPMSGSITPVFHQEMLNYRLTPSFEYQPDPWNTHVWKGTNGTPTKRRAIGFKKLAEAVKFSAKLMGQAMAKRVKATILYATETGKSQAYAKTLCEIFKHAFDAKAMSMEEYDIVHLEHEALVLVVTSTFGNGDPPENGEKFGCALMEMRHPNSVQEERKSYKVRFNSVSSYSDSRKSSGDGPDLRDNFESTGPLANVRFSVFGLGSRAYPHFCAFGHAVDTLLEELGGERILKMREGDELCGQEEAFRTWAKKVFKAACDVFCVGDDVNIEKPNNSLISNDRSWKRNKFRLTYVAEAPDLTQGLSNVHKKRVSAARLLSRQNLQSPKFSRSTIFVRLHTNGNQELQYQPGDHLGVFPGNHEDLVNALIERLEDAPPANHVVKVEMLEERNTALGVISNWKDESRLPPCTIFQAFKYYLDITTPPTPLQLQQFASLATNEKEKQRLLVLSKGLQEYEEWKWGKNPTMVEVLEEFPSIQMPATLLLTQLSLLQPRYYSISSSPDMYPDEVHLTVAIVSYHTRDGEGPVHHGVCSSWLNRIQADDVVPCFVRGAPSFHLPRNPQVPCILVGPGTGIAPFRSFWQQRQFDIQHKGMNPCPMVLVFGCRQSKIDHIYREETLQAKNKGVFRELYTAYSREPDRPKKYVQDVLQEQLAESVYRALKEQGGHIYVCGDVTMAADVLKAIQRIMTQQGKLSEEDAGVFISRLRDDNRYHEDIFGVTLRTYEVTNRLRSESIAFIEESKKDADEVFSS
Format: tissue-based, Cerebellum
readout: IC50

Example entries and their recorded answers appear below.
Find IC50 (Nitric oxide synthase 1 (Rattus norvegicus, UniProt P29476)) for the entry C#C[C@]1(O)CC[C@H]2[C@@H]3CCC4=CC(=O)CC[C@@H]4[C@H]3CC[C@@]21C
Not Active

Find IC50 (Nitric oxide synthase 1 (Rattus norvegicus, UniProt P29476)) for the entry C[N+](C)(C)CCOC(N)=O.[Cl-]
Not Active

Find IC50 (Nitric oxide synthase 1 (Rattus norvegicus, UniProt P29476)) for the entry COC(=O)Nc1nc2ccc(Sc3ccccc3)cc2[nH]1
Not Active

Find IC50 (Nitric oxide synthase 1 (Rattus norvegicus, UniProt P29476)) for the entry O=c1[nH]c2ccccc2c2ccccc12
Not Active

Find IC50 (Nitric oxide synthase 1 (Rattus norvegicus, UniProt P29476)) for the entry C[C@H]1C[C@H]2[C@@H]3CCC4=CC(=O)C=C[C@]4(C)[C@@]3(F)[C@@H](O)C[C@]2(C)[C@@]1(O)C(=O)CO
Not Active

For every record below, what is its IC50?
1. CN1C(=O)OC(C)(C)C1=O
2. CC1=C(/C=C/C(C)=C/C=C/C(C)=C/C(=O)O)C(C)(C)CCC1
3. O=C(O)c1ccccc1
4. Cc1nnc(NS(=O)(=O)c2ccc(N)cc2)s1
5. OC[C@H]1OC2C3[C@@H](CO)OC(O[C@H]4[C@H](O)[C@@H](O)[C@@H](O[C@H]5[C@H](O)[C@@H](O)[C@@H](O[C@H]6[C@H](O)[C@@H](O)[C@@H](O[C@H]7[C@H](O)[C@@H](O)[C@@H](O[C@H]8[C@H](O)[C@@H](O)[C@@H](O[C@H]9[C@H](O)[C@@H](O)C(OC1[C@H](O)[C@H]2O)O[C@@H]9CO)O[C@@H]8CO)O[C@@H]7CO)O[C@@H]6CO)O[C@@H]5CO)O[C@@H]4CO)[C@H](O)[C@H]3O
6. OC[C@@H](O)[C@@H](O)[C@H](O)[C@H](O)CO
7. C=C(Cl)Cl

1: Not Active; 2: Not Active; 3: Not Active; 4: Not Active; 5: Not Active; 6: Not Active; 7: Not Active

For every record below, what is its IC50?
1. O=C(O)CNCP(=O)(O)O [GLYPHOSATE]
2. C#C[C@]1(O)CC[C@H]2[C@@H]3[C@H](C)CC4=C(CCC(=O)C4)[C@H]3CC[C@@]21C
3. O=C1c2ccccc2C(=O)C1c1ccccc1
4. CO[C@@]12[C@H](COC(N)=O)C3=C(C(=O)C(C)=C(N)C3=O)N1C[C@@H]1N[C@@H]12

Not Active
Not Active
Not Active
Not Active
